Values were extracted from patent US8552048B2.

# run_description: Pharmacokinetics after repeated administration (Q7D×3) to rats
# Type: in vivo
# condition_summary: rat, plasma, iv; TH302 in rats, 50 mg/kg Q7D×3, Day 15; read-out: Cmax
quantity_measured: Cmax (ng/mL)

>>> measured_result("Cn1c(COP(=O)(NCCBr)NCCBr)cnc1[N+](=O)[O-]")
5720

* * *

# run_description: Pharmacokinetics in cynomolgus monkeys (20 mg/kg i.v.)
# Assay type: in vivo
# condition_summary: cynomolgus monkey, plasma, iv, 20 mg/kg, cynomolgus monkeys, Mean (N=3)
quantity_measured: clearance (mL/min/kg)

>>> measured_result("Cn1c(COP(=O)(NCCBr)NCCBr)cnc1[N+](=O)[O-] [TH302]")
128
